I'd appreciate it if you could supply log10 IC50 values for the items below.
Molecular target: UniProt P30559
Assay: Inhibition activity on human OTR (Fluo-4 calcium assay, HEK293/human OTR stably transfected cells)
Details: oxytocin 3 nM
Record value = log10 of IC50 given in nM.

Reported log10 IC50 ( COCc1nnc(N2CC(n3ccc4cc(F)ccc43)C2)n1-c1ccc(OC)nc1 [Example 25] ) = 1.36

So for COc1ccc(-n2c(C)nnc2N2CC(N3CCCc4c(F)cccc43)C2)cn1 [Example 20] , the logged log10 IC50 turned out to be 2.02

log10 IC50 in this record for COCc1nnc(N2CC(N3CCCc4cc(F)ccc43)C2)n1-c1ccc2c(c1)OCO2 [Example 28] : 2.36

Record COCc1nnc(N2CC(c3cn(C)c4cc(F)ccc34)C2)n1-c1ccc(OC)nc1 [Example 14] , field log10 IC50: 2.11

Measured log10 IC50, COc1ccc(-n2c(CO)nnc2N2CC(c3cccc4cc(F)ccc34)C2)cn1 [Example 41] : 2.18

COCc1nnc(N2CC(N3CCOc4c(F)cccc43)C2)n1-c1ccc(OC)nc1 [Example 22] yielded log10 IC50 of 2.25

For COCc1nnc(N2CC(n3cc(Cl)c4cc(F)ccc43)C2)n1-c1ccc(OC)nc1 [Example 10] the compound record lists log10 IC50 as 1.96

Notebook: COCc1nnc(N2CC(N3CCC(C)(C)c4cc(F)ccc43)C2)n1-c1ccc(OC)nc1 [Example 42] , log10 IC50 read as 1.36

// log10 IC50 lookup, compound = COCc1nnc(N2CC(N3CCCc4c(F)cccc43)C2)n1-c1ccc(OC)nc1 [Example 19] , result: 1.61

Value of log10 IC50 reported for the compound COCc1nnc(N2CC(c3cccc4cc(F)ccc34)C2)n1-c1ccc(OC)nc1 [Example 2] is 0.30

Reported log10 IC50 ( COC(=O)NCc1nnc(N2CC(N3CCCc4cc(F)ccc43)C2)n1-c1ccc(OC)nc1 [Example 36] ) = 2.09

Taken from patent US10889569B2.
